meta.source: PubChem BioAssay AID1240

- system: Bcl-2-like protein 10 (Homo sapiens)
- method.description: TR3 peptide-Bcl-B binding displacers, biochemical primary FP assay, phenotype converters (AID 1240);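 further: 0% = Bcl-B with tracer peptide and DMSO and 100% = tracer peptide lacking Bcl-B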
- condition.details: GST-Bcl-B / FITC-TR3 peptide fluorescence polarization; stronger effect = higher value; compound at 3.75 mg/L
Out of some 50,000 compounds screened, about 800 (1.6%) showed an effect of 50% or more. The entries come from a sample that favours strong results as a whole.
Below, each entry is listed alongside its reported displacement.
Report only the number, with the unit % understood.

Example molecules with recorded displacement:
{"columns": ["molecule", "unit.annotation", "displacement"],
 "data": [
  ["N#C/C(=C\\c1cn(CC(=O)Nc2ccccc2)c2ccccc12)C(=O)NCc1ccccc1", "%", 61.2],
  ["COc1ccc(NC(=O)/C(C#N)=C/c2cn(CC(=O)Nc3ccccc3)c3ccccc23)cc1", "%", -21.4],
  ["COc1ccc(/C=N/NC(=O)COc2ccccc2Br)cc1", "%", 2.6],
  ["Cc1cccc(NC(=O)/C(C#N)=C/c2cn(CC(=O)Nc3ccccc3)c3ccccc23)c1C", "%", -60.5],
  ["O=C(c1ccc(Cl)cc1Cl)N1CCN(c2nc3ccc([N+](=O)[O-])cc3s2)CC1", "%", 100],
  ["O=c1/c(=C\\c2ccccc2OS(=O)(=O)c2ccc3ccccc3c2)sc2nc3ccccc3n12", "%", 4.6],
  ["COc1ccc(NC(=O)c2ccccc2NC(=O)c2ccc(C)cc2)cc1", "%", -10.2],
  ["COc1cc(NC(=O)c2ccc(-c3ccccc3[N+](=O)[O-])o2)ccc1NC(=O)c1ccco1", "%", 7.1],
  ["COc1ccc(/C=N\\N2CCN(c3ccccc3OC)CC2)cc1OC", "%", -6.7],
  ["COc1ccc(Cl)cc1N(CC(=O)NCC(C)C)S(=O)(=O)c1ccc(C)c([N+](=O)[O-])c1", "%", 16.7]
]}

Find the recorded displacement belonging to COC(=O)C1=C(C)NC2=C(C(=O)CC(C)(C)C2)C1c1ccc(OC)cc1OC (stereo not given) and report it.
11.9

Find the recorded displacement belonging to `CCC(=O)N1CCN(c2nc3ccc([N+](=O)[O-])cc3s2)CC1` and report it.
-8.8

Find the recorded displacement belonging to `COc1ccc(NC(=O)CN(c2ccccc2Cl)S(C)(=O)=O)cc1OC` and report it.
3.6

Find the recorded displacement belonging to `COc1ccc(C(NC(C)=O)NC(C)=O)cc1OC` and report it.
6.3

Find the recorded displacement belonging to `COc1ccc(-c2c(C#N)c(N)nc3c2CCCCC3)cc1OC` and report it.
-2.3
